Data credit: ChEMBL document CHEMBL4813910

# assayOverview: Protein binding in human plasma at 20 mg/kg, IM
# Format: ADME, organism-based
# condition: read-out: PPB (converted)
observationType: fraction unbound

Asked: Request the reported fraction unbound associated with [H]/N=C(/N)N[C@H]1[C@H](O)[C@@H](O)[C@H](O[C@@H]2O[C@@H](C)[C@](O)(C=O)[C@H]2O[C@@H]2O[C@@H](CO)[C@H](O)[C@@H](O)[C@@H]2NC)[C@@H](N/C(N)=N\[H])[C@@H]1O [STREPTOMYCIN]
Given back: 0.52

---

# assayOverview: Volume of distribution in human at 20 mg/kg, iv measured over 1 hr
# Format: ADME, organism-based
# condition: in vivo
observationType: Vd (L/kg)
Just the number in L/kg, nothing appended.

Asked: Which value of Vd has been reported for O=Cc1c(O)cccc1OCCCCC(=O)O in the records?
Given back: 0.067
